tested_target: UniProtKB Q2NNR5
Sequence (whole entry): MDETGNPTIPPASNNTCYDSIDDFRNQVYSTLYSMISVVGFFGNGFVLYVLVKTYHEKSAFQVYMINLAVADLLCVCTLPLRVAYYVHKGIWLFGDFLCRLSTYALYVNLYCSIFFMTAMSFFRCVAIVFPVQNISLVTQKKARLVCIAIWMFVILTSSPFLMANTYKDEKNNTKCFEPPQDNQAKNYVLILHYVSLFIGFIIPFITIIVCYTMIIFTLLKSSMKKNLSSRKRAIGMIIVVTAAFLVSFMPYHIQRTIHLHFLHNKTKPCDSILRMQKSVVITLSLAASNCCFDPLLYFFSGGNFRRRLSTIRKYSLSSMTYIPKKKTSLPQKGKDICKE
protocol_details: Compound was tested for its inhibitory activity against specific binding of [3H]LTD4 to guinea pig ileum.
Assay type: tissue-based
Recorded pKB for the following compounds

{"structure": "c1cc(CCc2nnn[nH]2)c2c(c1)CCN2Cc1ccc(OCc2ccc3ccccc3n2)cc1", "pKB": 8.3}
{"structure": "Clc1ccc2ccc(COc3cccc(CN4CCc5cccc(CCc6nnn[nH]6)c54)c3)nc2c1", "pKB": 8.4}
{"structure": "C(=C\\c1ccc2ccccc2n1)/c1cccc(CN2CCc3cccc(CCc4nnn[nH]4)c32)c1", "pKB": 8.6}
{"structure": "Clc1ccc2ccc(/C=C/c3cccc(CN4CCc5cccc(CCc6nnn[nH]6)c54)c3)nc2c1", "pKB": 8.6}
{"structure": "Clc1ccc2ccc(/C=C/c3ccc(CN4CCc5cccc(CCc6nnn[nH]6)c54)cc3)nc2c1", "pKB": 8.6}
{"structure": "Clc1ccc2ccc(COc3ccc(CN4CCc5cccc(CCc6nnn[nH]6)c54)cc3)nc2c1", "pKB": 8.5}
{"structure": "Clc1ccc2ccc(/C=C/c3cccc(CN4CCc5cccc(OCc6nn[nH]n6)c54)c3)nc2c1", "pKB": 8.6}
